- assay.explanation: Chronic toxicity in po dosed mouse assessed as mortality administered as qd for 21 days
- Assay type: organism-based
- condition.label: in vivo, read-out: MNTD
Entries and their MTD at 504 h values follow.

- molecule: "CC(C)NCC(O)COc1c(C2CCCCC2)cc(/C=C/c2ccccc2)cc1C1CCCCC1.O=C(O)/C=C\\C(=O)O (centres undefined)"
  MTD at 504 h / mg/kg: 100
- molecule: "CC(C)NCC(O)COc1c(C(C)(C)C)cc([S+]([O-])c2ccc(Cl)cc2)cc1C(C)(C)C.O=C(O)/C=C\\C(=O)O (centres undefined)"
  MTD at 504 h / mg/kg: 75
- molecule: "CC(C)NCC(O)COc1c(C(C)(C)C)cc(Oc2ccccc2)cc1C(C)(C)C.O=C(O)/C=C\\C(=O)O (centres undefined)"
  MTD at 504 h / mg/kg: 100
- molecule: "CC(C)NCC(O)COc1c(C(C)(C)C)cc(-c2ccc(Cl)cc2)cc1C(C)(C)C (centres undefined)"
  MTD at 504 h / mg/kg: 100

---

Listed next: entries and their corresponding selectivity ratio.
- assay.explanation: Therapeutic index, ratio of MNTD for chronic toxicity in po dosed mouse to ED25 for antiobesity activity in mouse assessed as reduction in utero fat
- Format: organism-based
- condition.label: in vivo, read-out: TI

- compound: "CC(C)NCC(O)COc1c(C(C)(C)C)cc(/C=C/c2ccc(Br)cc2)cc1C(C)(C)C (stereo unspecified)"
  censoring.sign: "="
  selectivity ratio: 4.3
- compound: "CC(C)NCC(O)COc1ccc(Oc2ccc(Cl)cc2)cc1 (stereo unspecified)"
  censoring.sign: "="
  selectivity ratio: 5.5
- compound: "CC(C)NCC(O)COc1c(C(C)(C)C)cc(/C=C/c2ccc(Cl)cc2)cc1C(C)(C)C (stereo unspecified)"
  censoring.sign: "="
  selectivity ratio: 1
- compound: "CC(C)NCC(O)COc1ccc(-c2ccc(Cl)cc2)cc1.Cl (stereo unspecified)"
  censoring.sign: "="
  selectivity ratio: 0.5
- compound: "CC(C)NCC(O)COc1c(C(C)(C)C)cc(-c2ccc(Cl)cc2)cc1C(C)(C)C (stereo unspecified)"
  censoring.sign: "="
  selectivity ratio: 3.6
- compound: "CC(C)NCC(O)COc1c(C(C)(C)C)cc(/C=C/c2cccc(Cl)c2)cc1C(C)(C)C (stereo unspecified)"
  censoring.sign: "="
  selectivity ratio: 1.4
- compound: "COc1ccc(/C=C/c2cc(C(C)(C)C)c(OCC(O)CNC(C)C)c(C(C)(C)C)c2)cc1 (stereo unspecified)"
  censoring.sign: "="
  selectivity ratio: 1.25
- compound: "CC(C)NCC(O)COc1c(C(C)(C)C)cc(/C=C/c2cccs2)cc1C(C)(C)C (stereo unspecified)"
  censoring.sign: "<"
  selectivity ratio: 4.1
- compound: "CC(C)NCC(O)COc1c(C(C)(C)C)cc(/C=C/c2ccccc2)cc1C(C)(C)C (racemic)"
  censoring.sign: "="
  selectivity ratio: 5
- compound: "CC(C)NCC(O)COc1c(C(C)(C)C)cc(-c2ccccc2)cc1C(C)(C)C.Cl (stereo unspecified)"
  censoring.sign: "="
  selectivity ratio: 5
- compound: "CCc1cc(/C=C/c2ccccc2)cc(CC)c1OCC(O)CNC(C)C (stereo unspecified)"
  censoring.sign: "="
  selectivity ratio: 1.7

---

- assay.explanation: Chronic toxicity in po dosed mouse assessed as mortality administered as qd for 21 days
- Format: organism-based
- condition.label: in vivo, read-out: MNTD
Could you please mark True for values of MTD at 504 h below 100 mg/kg and False for values at or above it?

- compound: "CC(C)NCC(O)COc1c(C(C)(C)C)cc(/C=C/c2ccccc2)cc1C(C)(C)C (racemic)"
  class.name: "True"
- compound: "CC(C)NCC(O)COc1c(C(C)(C)C)cc(/C=C/c2cccs2)cc1C(C)(C)C (stereo not given)"
  class.name: "True"
- compound: "CCc1cc(/C=C/c2ccccc2)cc(CC)c1OCC(O)CNC(C)C (stereo not given)"
  class.name: "True"
- compound: "COc1ccc(/C=C/c2cc(C(C)(C)C)c(OCC(O)CNC(C)C)c(C(C)(C)C)c2)cc1 (stereo not given)"
  class.name: "True"
- compound: "CC(C)NCC(O)COc1c(C(C)(C)C)cc(/C=C/c2ccc(Br)cc2)cc1C(C)(C)C (stereo not given)"
  class.name: "False"
- compound: "CC(C)NCC(O)COc1ccc(-c2ccc(Cl)cc2)cc1.Cl (stereo not given)"
  class.name: "True"

---

- Tested on: Mus musculus
- assay.explanation: Toxicity in mouse assessed as liver hypertrophy at 1000 mg/kg, po administered for 21 days
- Format: organism-based
- Design: dose 1000 mg/kg, route oral
- condition.label: in vivo, 504 h
reported.endpoint: Activity

- molecule: "CC(C)NCC(O)COc1c(C(C)(C)C)cc(/C=C/c2cccs2)cc1C(C)(C)C (stereo not given)"
  value.measured: "Non-toxic"
- molecule: "CC(C)NCC(O)COc1ccc(-c2ccc(Cl)cc2)cc1.Cl (stereo not given)"
  value.measured: "Non-toxic"
- molecule: "CC(C)NCC(O)COc1c(C(C)(C)C)cc([S+]([O-])c2ccc(Cl)cc2)cc1C(C)(C)C.O=C(O)/C=C\\C(=O)O (stereo not given)"
  value.measured: "Non-toxic"
- molecule: "CC(C)NCC(O)COc1c(C(C)(C)C)cc(-c2ccccc2)cc1C(C)(C)C.Cl (stereo not given)"
  value.measured: "Toxic"
- molecule: "COc1ccc(/C=C/c2cc(C(C)(C)C)c(OCC(O)CNC(C)C)c(C(C)(C)C)c2)cc1 (stereo not given)"
  value.measured: "Non-toxic"
